Entry source: patent US9777005B2

Molecular target: human M1 receptor (hCHRM1) (Homo sapiens, UniProt P11229)
Construct: expressed in transfected cells; host or cells: CHO-K1
Sequence (P11229 1-460): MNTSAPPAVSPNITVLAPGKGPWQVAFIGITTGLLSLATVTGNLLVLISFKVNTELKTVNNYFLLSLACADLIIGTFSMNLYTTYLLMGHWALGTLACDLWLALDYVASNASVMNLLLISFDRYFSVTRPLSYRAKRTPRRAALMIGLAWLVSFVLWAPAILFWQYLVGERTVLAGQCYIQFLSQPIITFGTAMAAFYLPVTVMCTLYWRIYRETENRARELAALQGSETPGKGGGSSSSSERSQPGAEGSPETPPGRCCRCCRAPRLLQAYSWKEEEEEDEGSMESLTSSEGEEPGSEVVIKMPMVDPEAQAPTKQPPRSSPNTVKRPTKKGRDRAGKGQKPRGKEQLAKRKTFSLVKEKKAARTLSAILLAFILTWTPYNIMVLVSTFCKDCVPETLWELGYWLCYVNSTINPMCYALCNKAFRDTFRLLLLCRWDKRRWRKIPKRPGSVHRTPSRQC
Assay: Measurement of M1 receptor positive allosteric modulator (M1PAM) activity, calcium fluorescence (FLIPRtetra) in CHO-K1 cells in the presence of acetylcholine at EC20
Assay type: cell-based
Settings: test compound 10 μM, in the presence of acetylcholine at EC20 (final 0.6 nM), CHO-K1 cells expressing hCHRM1
resultType: activity (%) at 10 μM

compound | unitOfMeasure | activity (%) at 10 μM
CCc1ccc(Oc2nccc3c2C(=O)N(Cc2ccc(C(N)=O)cc2)C3)c(F)c1 [Example 449] | % | 99
Cn1ccc(-c2ccc(CN3Cc4cccc(O[C@@H]5CCOC[C@H]5O)c4C3=O)cc2)n1 [Example 272] | % | 107
Cc1cc(-c2ccc(CN3Cc4ccnc(Oc5ccc(C(F)(F)F)cc5C)c4C3=O)cc2)cnn1 [Example 407] | % | 89
Cc1cc(-c2ccc(CN3Cc4ccnc(Oc5ccc(C(F)(F)F)cc5F)c4C3=O)cc2)cnn1 [Example 303] | % | 91
CCC(O)COc1cccc2c1C(=O)N(Cc1ccc(-c3cnn(C)c3)cc1)C2 (centres unmarked) [Example 261] | % | 98
Cn1cc(-c2ccc(CN3Cc4ccnc(Oc5c(F)cccc5Cl)c4C3=O)cc2)cn1 [Example 397] | % | 95
Cn1cc(-c2ccc(CN3Cc4ccnc(OCc5ccccc5F)c4C3=O)c(F)c2)nn1 [Example 327] | % | 98
Cc1ccc(Oc2nccc3c2C(=O)N(Cc2ccc(-n4cnc(C)c4)cc2)C3)c(F)c1 [Example 427] | % | 111
